Values from patent US12091411B2

Study System: IRAK4 (Homo sapiens)
Construct: Degradation of IRAK4 in OCI-LY10 was quantitatively measured using Meso Scale Discovery technology; endogenous in cells; host or cells: OCI-LY10
Sequence (Q9NWZ3 whole entry): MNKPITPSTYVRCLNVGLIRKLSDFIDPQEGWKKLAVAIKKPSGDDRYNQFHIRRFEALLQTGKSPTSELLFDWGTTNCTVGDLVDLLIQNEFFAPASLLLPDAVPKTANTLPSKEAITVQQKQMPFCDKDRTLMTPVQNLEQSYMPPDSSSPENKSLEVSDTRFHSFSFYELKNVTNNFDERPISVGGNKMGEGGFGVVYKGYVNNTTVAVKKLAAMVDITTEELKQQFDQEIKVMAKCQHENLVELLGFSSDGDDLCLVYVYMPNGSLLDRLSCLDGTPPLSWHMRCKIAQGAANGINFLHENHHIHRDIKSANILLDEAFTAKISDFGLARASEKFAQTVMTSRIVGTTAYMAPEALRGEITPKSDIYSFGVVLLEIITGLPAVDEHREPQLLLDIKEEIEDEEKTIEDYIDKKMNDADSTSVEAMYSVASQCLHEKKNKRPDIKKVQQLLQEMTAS
Test Details: IRAK4 MSD Degradation in OCI-LY10
Type: cell-based
Cond: OCI-LY10 cells, 24 hrs incubation, MSD; read-out: IRAK4 degradation in OCI-LY10 at 24 hrs: DC50
Procedure: Degradation of IRAK4 in OCI-LY10 was quantitatively measured using Meso Scale Discovery technology. […] Compounds were then added to the assay plates with a final top concentration of 1 to 10 μM in a 1:3 dilution series with total of 8 doses. […] The assay plates were then incubated at room temperature for 1 hour, washed 3 times with 150 μL/well TBST buffer, and 150 μL/well MSD reading buffer (Meso Scale Discovery catalog number R92TC-2) was added. […]
Readout: DC50

Each of the following entries comes with a recorded value; kindly state DC50 for each.
1. Cn1c(=O)n(C2CCC(=O)NC2=O)c2cccc([C@H]3C[C@H](O[C@H]4CCN(C[C@H]5CC[C@H](n6cc(NC(=O)c7cnn8ccc(N9C[C@H]%10C[C@@H]9CO%10)nc78)c(C(F)F)n6)CC5)C[C@H]4F)C3)c21 (stereo partly shown)
2. COc1ccc2c(c1C1CCN(C[C@H]3CC[C@H](n4cc5cc(NC(=O)c6cccc(C(F)(F)F)n6)ncc5n4)CC3)CC1F)n(C)c(=O)n2C1CCC(=O)NC1=O (stereo partly shown)
3. Cn1c(=O)n(C2CCC(=O)NC2=O)c2cccc(CCCN3CCN(C[C@H]4CC[C@H](n5cc(NC(=O)c6cnn7ccc(N8C[C@H]9C[C@@H]8CO9)nc67)c(C(F)F)n5)CC4)CC3)c21 (relative stereo)
4. Cc1cccc(C(=O)Nc2ccc3nn([C@H]4CC[C@H](CN5CC[C@H](c6cccc7c6n(C)c(=O)n7C6CCC(=O)NC6=O)[C@H](F)C5)CC4)cc3c2)n1 (stereo partly shown)
5. Cn1c(=O)n(C2CCC(=O)NC2=O)c2ccc(N3CC(CO[C@@H]4CCN(CC5CCC(n6cc(NC(=O)c7cnn8ccc(N9C[C@H]%10C[C@@H]9CO%10)nc78)c(C(F)F)n6)CC5)C[C@@H]4F)C3)c(F)c21 (stereo partly shown)
6. Cn1c(=O)n(C2CCC(=O)NC2=O)c2cccc(C#CCOC3CCN(C[C@H]4CC[C@@H](c5ccc(C(F)F)c(NC(=O)c6cnn7ccc(N8C[C@H]9C[C@@H]8CO9)nc67)c5)CC4)CC3)c21 (stereo partly shown)
7. CO[C@H]1CN(c2cccc3c2n(C)c(=O)n3C2CCC(=O)NC2=O)C[C@H]1N(C)C[C@H]1CC[C@H](n2cc3cc(NC(=O)c4cccc(C(F)(F)F)n4)ccc3n2)CC1 (stereo partly shown)

Response:
> 0.2 µM
> 0.2 µM
> 0.2 µM
> 0.2 µM
> 0.2 µM
> 0.2 µM
> 0.2 µM

----------
Study System: IRAK4 (Homo sapiens)
Construct: Degradation of IRAK4 in OCI-LY10 was quantitatively measured using Meso Scale Discovery technology; endogenous in cells; host or cells: OCI-LY10
Test Details: IRAK4 MSD Degradation in OCI-LY10
Format: cell-based
Cond: OCI-LY10 cells, 24 hrs incubation, MSD; read-out: IRAK4 degradation in OCI-LY10 at 24 hrs: DC50
Please respond with reported DC50 for every item in the list.

Please review the entries below; each comes with its answer.
Cn1c(=O)n(C2CCC(=O)NC2=O)c2cccc(C#CCO[C@H]3CCN(C[C@H]4CC[C@H](n5cc(NC(=O)c6cnn7ccc(N8CCS(=O)(=O)CC8)nc67)c(C(F)F)n5)CC4)C[C@H]3F)c21 (some centres unmarked) [I-592]    > 200 nM
Cn1c(=O)n(C2CCC(=O)NC2=O)c2cccc(C#CCN3CCN(C[C@H]4CC[C@H](n5cc(NC(=O)c6cnn7cccnc67)c(C(F)F)n5)CC4)CC3)c21 (some centres unmarked) [I-235]    10 to 100 nM
Cc1ccc(-c2nn([C@H]3CC[C@H](CN4CCN(CC#Cc5cccc6c5n(C)c(=O)n6C5CCC(=O)NC5=O)CC4)CC3)cc2NC(=O)c2cnn3cccnc23)nc1 (some centres unmarked) [I-113]    < 10 nM
C[C@@H]1CN(c2ccn3ncc(C(=O)Nc4cn([C@H]5CC[C@H](CN(C)C6CCN(c7cccc8c7n(C)c(=O)n8C7CCC(=O)NC7=O)CC6(F)F)CC5)nc4C(F)F)c3n2)CCO1 (some centres unmarked) [I-529]    10 to 100 nM
Cc1ccc(-c2nn([C@H]3CC[C@H](CN(C)C4CCN(c5cccc6c5n(C)c(=O)n6C5CCC(=O)NC5=O)CC4)CC3)cc2NC(=O)c2cnn3cccnc23)nc1 (some centres unmarked) [I-292]    < 10 nM
Cn1c(=O)n(C2CCC(=O)NC2=O)c2cccc(C#CCN3CCN(C[C@H]4CC[C@H](n5cc(NC(=O)c6cnn7ccc(N8CC9COCC9C8)nc67)c(C(F)F)n5)CC4)CC3)c21 (some centres unmarked) [I-323]    > 200 nM
Cn1c(=O)n(C2CCC(=O)NC2=O)c2cccc(N3CCC(N4CC5(CCC(n6cc7cc(NC(=O)c8cccc(C(F)(F)F)n8)c(C#N)cc7n6)CC5)C4)C(F)(F)C3)c21 (centres unmarked) [I-566]    > 200 nM
Cn1c(=O)n(C2CCC(=O)NC2=O)c2cccc([C@H]3C[C@H](O[C@@H]4CCN(C[C@H]5CC[C@H](n6cc(NC(=O)c7cnn8ccc(N9C[C@H]%10C[C@@H]9CO%10)nc78)c(C(F)F)n6)CC5)C[C@@H]4F)C3)c21 (some centres unmarked) [I-593]    > 200 nM
Cn1c(=O)n(C2CCC(=O)NC2=O)c2cccc(CC[C@H]3CN(Cc4ccc(-n5cc(NC(=O)c6cnn7ccc(N8C[C@H]9C[C@@H]8CO9)nc67)c(C(F)F)n5)cc4)CCO3)c21 (some centres unmarked) [I-386]    > 200 nM
Cn1c(=O)n(C2CCC(=O)NC2=O)c2cccc(N3CC(C4CCN([C@H]5CC[C@@H](n6cc(NC(=O)c7cnn8ccc(N9C[C@H]%10C[C@@H]9CO%10)nc78)c(C(F)F)n6)CC5)CC4(F)F)C3)c21 (some centres unmarked) [I-760]    > 200 nM

Each of the following entries comes with a recorded value; kindly state DC50 for each.
1. Cn1c(=O)n(C2CCC(=O)NC2=O)c2cccc(N3CC(CO[C@@H]4CCN(C[C@H]5CC[C@H](n6cc(NC(=O)c7cnn8ccc(N9C[C@H]%10CC9CO%10)nc78)c(C(F)F)n6)CC5)C[C@H]4F)C3)c21 (some centres unmarked) [I-586]
2. C[C@@H]1CN(c2ccn3ncc(C(=O)Nc4cn([C@H]5CC[C@H](CN(C)C6CCN(c7cccc8c7n(C)c(=O)n8C7CCC(=O)NC7=O)CC6)CC5)nc4C(F)F)c3n2)C[C@@H](C)O1 (some centres unmarked) [I-440]
3. CN(C[C@H]1CC[C@H](n2cc(NC(=O)c3cnn4ccc(N5CCO[C@H](C(F)(F)F)C5)nc34)c(C(F)F)n2)CC1)C1CCN(c2cccc3c2n(C)c(=O)n3C2CCC(=O)NC2=O)CC1(F)F (some centres unmarked) [I-538]

Response:
["< 10 nM", "< 10 nM", "> 200 nM"]

----------
Study System: IRAK4 (Homo sapiens)
Construct: Degradation of IRAK4 in OCI-LY10 was quantitatively measured using Meso Scale Discovery technology; endogenous in cells; host or cells: OCI-LY10
Test Details: IRAK4 MSD Degradation in OCI-LY10
Assay type: cell-based
Cond: OCI-LY10 cells, 24 hrs incubation, MSD; read-out: IRAK4 degradation in OCI-LY10 at 24 hrs: DC50
Readout: DC50

Please review the entries below; each comes with its answer.
Cn1c(=O)n(C2CCC(=O)NC2=O)c2cccc(C#CCN3CCN(C[C@H]4CC[C@H](n5cc(NC(=O)c6cnn7ccc(N8CCCCC8)nc67)c(C(F)F)n5)CC4)CC3)c21 (some centres unmarked) [I-100]    > 200 nM
Cn1c(=O)n(C2CCC(=O)NC2=O)c2cccc(OC3CN(C[C@H]4CC[C@H](n5cc6cc(NC(=O)c7cccc(C(F)(F)F)n7)ccc6n5)CC4)C3)c21 (some centres unmarked) [I-607]    10 to 100 nM
O=C1CCC(c2ccc(N3CC(N4CCN([C@H]5CC[C@H](n6cc(NC(=O)c7cnn8ccc(N9C[C@H]%10C[C@@H]9CO%10)nc78)c(C(F)F)n6)CC5)CC4)C3)cc2Cl)C(=O)N1 (some centres unmarked) [I-779]    > 200 nM
CN(C[C@H]1CC[C@H](n2cc(NC(=O)c3cnn4ccc(N5CCOC6(CCC6)C5)nc34)c(C(F)F)n2)CC1)C1CCN(c2cccc3c2n(C)c(=O)n3C2CCC(=O)NC2=O)CC1 (some centres unmarked) [I-357]    < 10 nM
Cn1c(=O)n(C2CCC(=O)NC2=O)c2ccc(F)c(C3CN(C4CCN([C@H]5CC[C@H](n6cc(NC(=O)c7cnn8ccc(N9C[C@H]%10C[C@@H]9CO%10)nc78)c(C(F)F)n6)CC5)CC4(F)F)C3)c21 (some centres unmarked) [I-753]    > 200 nM
O=C1CCN(c2cncc3c(C4CCN(C5CCN(C[C@H]6CC[C@H](n7cc(NC(=O)c8cnn9ccc(N%10C[C@H]%11C[C@@H]%10CO%11)nc89)c(C(F)F)n7)CC6)CC5)CC4)cccc23)C(=O)N1 [I-74]    > 200 nM

Each of the following entries comes with a recorded value; kindly state DC50 for each.
1. O=C1CCN(c2cncc3c(C#CCOC4CCN(C[C@H]5CC[C@H](n6cc(NC(=O)c7cnn8ccc(N9C[C@H]%10C[C@@H]9CO%10)nc78)c(C(F)F)n6)CC5)CC4)cccc23)C(=O)N1 [I-10]
2. CN(C[C@H]1CC[C@H](n2cc(NC(=O)c3cnn4ccc(N5CC6CCC(C5)O6)nc34)c(C(F)F)n2)CC1)C1CCN(c2cccc3c2n(C)c(=O)n3C2CCC(=O)NC2=O)CC1(F)F (some centres unmarked) [I-526]
3. Cn1c(=O)n(C2CCC(=O)NC2=O)c2cccc(N3CCN(CC4CCN(C[C@H]5CC[C@H](n6cc(NC(=O)c7cnn8ccc(N9C[C@@H]%10C[C@H]9CO%10)nc78)c(C(F)F)n6)CC5)CC4)CC3)c21 (some centres unmarked) [I-161]
4. Cn1c(=O)n(C2CCC(=O)NC2=O)c2cccc(C3CCN(C[C@H]4CC[C@H](n5cc6cc(NC(=O)c7cccc(C(F)F)n7)c(C(C)(C)O)cc6n5)CC4)C[C@@H]3F)c21 (some centres unmarked) [I-652]
5. CN(C[C@H]1CC[C@H](n2cc(NC(=O)c3cnn4cccnc34)c(C(F)F)n2)CC1)C1C(F)CN(c2cccc3c2n(C)c(=O)n3C2CCC(=O)NC2=O)CC1F (some centres unmarked) [I-483]
6. Cn1c(=O)n(C2CCC(=O)NC2=O)c2cccc(C#CCO[C@@H]3CCN(C[C@H]4CC[C@H](n5cc(NC(=O)c6cnn7ccc(N8CCS(=O)(=O)CC8)nc67)c(C(F)F)n5)CC4)C[C@@H]3F)c21 (some centres unmarked) [I-589]

Response:
1. > 200 nM
2. 10 to 100 nM
3. > 200 nM
4. > 200 nM
5. > 200 nM
6. > 200 nM

Each of the following entries comes with a recorded value; kindly state DC50 for each.
1. Cn1c(=O)n(C2CCC(=O)NC2=O)c2cccc([C@H]3CCN(C[C@H]4CC[C@H](n5cc6cc(NC(=O)c7cccc(C#N)n7)ccc6n5)CC4)C[C@@H]3F)c21 (some centres unmarked) [I-626]
2. C[C@H]1CN(C[C@H]2CC[C@H](n3cc(NC(=O)c4cnn5ccc(N6C[C@H]7C[C@@H]6CO7)nc45)c(C(F)F)n3)CC2)CC[C@@H]1OCC#Cc1cccc2c1n(C)c(=O)n2[C@@H]1CCC(=O)NC1=O (single isomer, unassigned) [I-73]
3. COc1cc2nn([C@H]3CC[C@H](CN4CCC5(CC4)CCN(c4cccc6c(N7CCC(=O)NC7=O)cncc46)CC5)CC3)cc2cc1NC(=O)c1cncc(C#N)c1 [I-90]

Response:
["> 200 nM", "> 200 nM", "> 200 nM"]
